# System Name: T1, human C5 R885C-mmh (human, UniProt P01031 19-1676)
# T1 construct: also called human C5 variant R885C
# Run Description: SPR, mAb captured via anti-hFc, 25C
Measured Endpoint: t1/2

[
  {
    "Binder": "H4H11686N (antibody, V domains shown, also called H2M11686N) VH: QVQLVESGGGLVKPGGSLRLSCAASGFTFSDYYMSWIRQAPGKGLEWVSYISSSGNTIKYADSMKGRFTISRDNAKKSLFVEMNSLRAEDTAVYYCARYKSSSDYFDHWGQGTLVTVSS VL: EIVLTQSPATLSLSPGERATLSCRASQSVRSYLAWYQQKPGQAPRLLIYDASNRATAIPARFSGSGSGTDFTLTISSLEPEDLAVYYCQQSGNWPLTFGGGTKVEIK",
    "t1/2": "2.03 h"
  }
]

May I ask what t1/2 has been recorded for H4H12167P (antibody, human IgG4, V domains shown, Human IgG4 Fc with S108P hinge mutation (H4H)) VH: QVQLVESGGGLVKPGGSLRLSCAASGFTFSDSYMSWIRQAPGKGLEWISYIGSSGNTFYYADSVKGRFTISRDNANNLLYLQMTSLRAEDTAVYYCAREEGDFWSAVDSWGQGTLVTVSS VL: DIQLTQSPSFLSASVGDRVTITCWASQGISSYLAWYQQKPGKAPKLLIHTASTLQSGVPSRFSGSGSGTEFTLTISNLQPEDFATYYCQQLNSYPFTFGPGTKVDIK ?
0.65 h

May I ask what t1/2 has been recorded for H4H12168P (antibody, human IgG4, V domains shown, Human IgG4 Fc with S108P hinge mutation (H4H)) VH: QVQLVESGGGVVQPGGSLRLSCAASGFTFGGHAMHWVRQAPGKGLEWLAVISSDGSNKQYADSVKGRFTISRDNPKNTLYLQMNSLRVGDTAIYYCAKEVAPRYYYYGLDVWGQGTTVTVSS VL: DIQMTQSPSSLSASVGDRVTITCRASQDISNFLAWYQQKPGKVPKLLIYTASTLQSGVPSRFSGSGSGTDFTLTVSSLQPEDVATYYCQKYAGALTFGPGTKVDIK ?
0.967 h

May I ask what t1/2 has been recorded for H4H12161P (antibody, human IgG4, V domains shown, Human IgG4 Fc with S108P hinge mutation (H4H)) VH: EVQLVESGGDLVQPGGSLRLSCAASGFTFSDHYMDWVRQAPGKGLDWIGRIRNKANAYNTEYAASVRGRFTISRDDSQNLLYLQMNSLKTDDTAVYYCVRVWNYAYFAMDVWGQGTTVTVSS VL: DIQMTQSPSSLSASVGDRVTITCRSSQNIGIFLNWYQQKPGEAPNLLISAASSLHSGVPSRFSGSGSGTDFTLTIGSLQPEDFATYYCQQTYNTIFTFGPGTKVDIK ?
2.22 h
